Tested on: HTLV-1
Experiment: MT-2-Jurkat cell-to-cell HTLV-1 infection, proviral load by qPCR
Format: cell-based
Details: Replicate 2; read-out: HTLV-1 infection EC50

MOLECULE | SCALE UNIT | EC50
Nc1c(C(=O)NCc2ccc(F)cc2F)c(=O)n(O)c2ncc(CCCO)cc12 | nM | 3.49
CC(C)n1c(C(=O)N(C)C)c2c(c(O)c1=O)C(=O)N(Cc1ccc(F)c(Cl)c1)CC2 [XZ236, reference compound] | nM | 1.48
Nc1c(C(=O)NCc2ccc(F)cc2F)c(=O)n(O)c2ncc(CCS(=O)(=O)c3ccccc3)cc12 | nM | 2.16
Nc1c(C(=O)NCc2ccc(F)cc2F)c(=O)n(O)c2ncc(CCC(=O)NCCO)cc12 | nM | 146

###

Target: recombinant HTLV-1 IN (Human T-cell leukemia virus 1)
Construct: made in house
Sequence (P03362 1168-1462): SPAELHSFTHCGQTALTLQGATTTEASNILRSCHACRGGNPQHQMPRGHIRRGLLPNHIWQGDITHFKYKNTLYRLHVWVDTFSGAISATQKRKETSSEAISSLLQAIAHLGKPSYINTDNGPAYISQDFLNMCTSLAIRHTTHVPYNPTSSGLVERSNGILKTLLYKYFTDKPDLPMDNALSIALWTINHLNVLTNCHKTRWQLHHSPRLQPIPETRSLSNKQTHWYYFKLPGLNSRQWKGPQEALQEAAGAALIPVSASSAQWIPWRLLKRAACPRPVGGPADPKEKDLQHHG
Test: In vitro integration strand transfer assay with HTLV-1 IN
Format: biochemical
Details: Replicate 2; read-out: HTLV-1 IN strand transfer IC50
QUANTITY KIND: IC50 (nM)

SMILES DATA | NUMERIC VALUE
Nc1c(C(=O)NCc2ccc(F)cc2F)c(=O)n(O)c2ncc(CCC(=O)NCCO)cc12 | 227
Nc1c(C(=O)NCc2ccc(F)cc2F)c(=O)n(O)c2ncc(CCCO)cc12 | 185
O=C(NCc1ccc(F)cc1F)c1c(NCCO)c2cc(CCCCCO)cnc2n(O)c1=O | 239
CN(C)C(=O)CCc1cnc2c(c1)c(N)c(C(=O)NCc1ccc(F)cc1F)c(=O)n2O | 180
Nc1c(C(=O)NCc2ccc(F)cc2F)c(=O)n(O)c2ncc(CCCCCO)cc12 | 249
O=C(NCc1ccc(F)cc1F)c1c(NCCO)c2cccnc2n(O)c1=O | 474

###

Biological target: recombinant HTLV-1 IN (Human T-cell leukemia virus 1)
Construct: made in house
Assay: In vitro integration strand transfer assay with HTLV-1 IN
Assay type: biochemical
Settings: INSTI at 634 nM; Replicate 1
Protocol: We used in vitro strand transfer assays to screen this small molecule library for its ability to inhibit recombinant HTLV-1 IN. […] Proteins were degraded by incubation with 30 μg of proteinase K (Roche) at 37 °C for 1 h. […] The data were analysed and the IC50 calculated as previously described. In brief, the DNA band that corresponds to the concerted integration product was quantified by densitometry in ImageLab 4.1 (Bio-Rad). […] Quantified data points were fitted to dose–response curves in Prism 9. […]
QUANTITY KIND: HTLV-1 IN strand transfer activity (No drug = 100)

MOLECULE | ASSAY SYSTEM | RESULT
COC(=O)CCc1cnc2c(c1)c(N)c(C(=O)NCc1ccc(F)cc1F)c(=O)n2O [XZ434] | recombinant HTLV-1 IN (Human T-cell leukemia virus 1) | 20.5794%
CC(C)NC(=O)/C=C/c1cnc2c(c1)c(N)c(C(=O)NCc1ccc(F)cc1F)c(=O)n2O [XZ452] | recombinant HTLV-1 IN (Human T-cell leukemia virus 1) | 11.3751%
Nc1ccc(-c2ccc(Nc3cc(=O)n(O)c4ncccc34)cc2)cc1 [XZ460] | recombinant HTLV-1 IN (Human T-cell leukemia virus 1) | 91.7662%
O=C(NNC(=O)c1cccc(O)c1O)c1ccccc1O [XZ45] | recombinant HTLV-1 IN (Human T-cell leukemia virus 1) | 95.0641%
O=C(NCc1ccc(F)cc1F)c1c(NCCO)c2cccnc2n(O)c1=O [XZ378] | recombinant HTLV-1 IN (Human T-cell leukemia virus 1) | 14.3053%
